The origin of these recorded values is ChEMBL document CHEMBL1909046.

# PROCEDURE_SUMMARY: DRUGMATRIX: Tumor Necrosis Factor (TNF), Non-Selective radioligand binding (ligand: [125I] TNF-alpha)
# Format: cell membranes, Membrane
# ASSAY_SETUP: u-937; Not Active = under 50% inhibition at 10 µM
QUANTITY_KIND: Ki

Would you please look over these solved cases?
CN1C(=O)COc2c(C(=O)NC3CN4CCC3CC4)cc(Cl)cc21 (stereo not drawn)	Not Active
CC(C)CC(N(C)C)C1(c2ccc(Cl)cc2)CCC1 (stereo not drawn)	Not Active
N=C(N)NC(=O)c1nc(Cl)c(N)nc1N [AMILORIDE]	Not Active
CC(=O)OCC(=O)[C@@]1(O)CC[C@H]2[C@@H]3CCC4=CC(=O)CC[C@]4(C)[C@H]3C(=O)C[C@@]21C [CORTISONE ACETATE]	Not Active
CC(C)(Oc1ccc(C2CCCc3ccccc32)cc1)C(=O)O (stereo not drawn)	Not Active
COc1ccc2[nH]c([S+]([O-])Cc3ncc(C)c(OC)c3C)nc2c1 (stereo not drawn)	Not Active

Input: So what's the measured Ki for this one? COc1cccc2c1C(=O)c1c(O)c3c(c(O)c1C2=O)C[C@@](O)(C(=O)CO)C[C@@H]3O[C@H]1C[C@H](N)[C@@H](O)[C@H](C)O1 [EPIRUBICIN]
Output: Not Active

Input: So what's the measured Ki for this one? O=C(O)Cc1ccccc1Nc1c(Cl)cccc1Cl
Output: Not Active

* * *

# SYSTEM_TESTED: Insulin receptor (Rattus norvegicus, UniProt P15127); note: in other assays of this panel Not Active means under 50% inhibition at 10 µM
# Sequence (P15127 27-759 limits assumed): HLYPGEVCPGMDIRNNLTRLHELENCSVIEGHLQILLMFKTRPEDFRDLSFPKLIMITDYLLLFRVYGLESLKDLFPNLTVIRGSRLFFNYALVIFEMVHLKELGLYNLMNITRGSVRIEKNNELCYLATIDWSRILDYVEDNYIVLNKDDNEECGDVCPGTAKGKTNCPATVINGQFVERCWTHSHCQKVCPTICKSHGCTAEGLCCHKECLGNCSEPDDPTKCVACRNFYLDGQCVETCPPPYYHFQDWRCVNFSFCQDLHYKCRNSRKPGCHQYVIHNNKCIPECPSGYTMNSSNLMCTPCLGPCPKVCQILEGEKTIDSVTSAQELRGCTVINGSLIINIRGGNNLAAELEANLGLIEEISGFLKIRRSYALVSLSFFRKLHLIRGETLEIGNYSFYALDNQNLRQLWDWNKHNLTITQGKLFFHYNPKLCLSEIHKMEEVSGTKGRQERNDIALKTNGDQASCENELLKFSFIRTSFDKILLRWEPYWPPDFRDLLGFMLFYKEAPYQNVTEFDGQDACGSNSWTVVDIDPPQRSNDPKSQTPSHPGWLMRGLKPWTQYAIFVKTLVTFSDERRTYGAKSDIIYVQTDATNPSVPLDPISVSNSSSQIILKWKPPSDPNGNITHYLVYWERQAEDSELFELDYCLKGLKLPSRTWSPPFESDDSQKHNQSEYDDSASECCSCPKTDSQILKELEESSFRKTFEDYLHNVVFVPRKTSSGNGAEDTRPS
# Sequence (P15127 764-1383 limits assumed): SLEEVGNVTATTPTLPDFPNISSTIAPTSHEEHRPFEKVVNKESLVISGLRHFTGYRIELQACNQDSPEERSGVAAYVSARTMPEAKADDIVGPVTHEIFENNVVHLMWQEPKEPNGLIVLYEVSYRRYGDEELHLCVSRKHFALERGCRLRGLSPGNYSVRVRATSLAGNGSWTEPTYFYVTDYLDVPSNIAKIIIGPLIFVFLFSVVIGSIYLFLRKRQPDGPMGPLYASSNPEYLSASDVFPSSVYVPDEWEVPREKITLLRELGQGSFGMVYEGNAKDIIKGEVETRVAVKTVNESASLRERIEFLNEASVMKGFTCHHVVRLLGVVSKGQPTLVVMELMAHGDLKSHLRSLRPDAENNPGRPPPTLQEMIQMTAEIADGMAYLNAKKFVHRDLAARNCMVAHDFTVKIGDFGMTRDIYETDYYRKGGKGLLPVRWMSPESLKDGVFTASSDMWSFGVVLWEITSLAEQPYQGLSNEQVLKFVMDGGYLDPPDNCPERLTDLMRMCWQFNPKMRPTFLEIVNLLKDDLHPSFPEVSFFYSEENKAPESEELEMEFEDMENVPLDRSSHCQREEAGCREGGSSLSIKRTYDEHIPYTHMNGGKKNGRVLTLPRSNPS
# Assay type: cell membranes, Wistar, Liver, Membrane
QUANTITY_KIND: IC50

Would you please look over these solved cases?
CCN1CC(CCN2CCOCC2)C(c2ccccc2)(c2ccccc2)C1=O (stereo unspecified)	Not Active
NC(=O)NO [HYDROXYUREA]	Not Active
O=C(N[C@H](CO)[C@H](O)c1ccc([N+](=O)[O-])cc1)C(Cl)Cl	Not Active
NC(=O)c1cnccn1 [PYRAZINAMIDE]	Not Active
C#C[C@]1(OC(C)=O)CC[C@H]2[C@@H]3CCC4=CC(=O)CC[C@@H]4[C@H]3CC[C@@]21C [NORETHINDRONE ACETATE]	Not Active

Input: Give recorded IC50 with Insulin receptor (Rattus norvegicus, UniProt P15127) for the following compound: CC1=C(C(=O)O)N2C(=O)[C@@H](NC(=O)[C@H](N)c3ccccc3)[C@H]2SC1 [CEPHALEXIN ANHYDROUS]
Output: Not Active

Input: Give recorded IC50 with Insulin receptor (Rattus norvegicus, UniProt P15127) for the following compound: CO[C@H]1/C=C/O[C@@]2(C)Oc3c(C)c(O)c4c(c3C2=O)C2=NC3(CCN(CC(C)C)CC3)NC2=C(NC(=O)/C(C)=C\C=C\[C@H](C)[C@H](O)[C@@H](C)[C@@H](O)[C@@H](C)[C@H](OC(C)=O)[C@@H]1C)C4=O
Output: Not Active

Input: Give recorded IC50 with Insulin receptor (Rattus norvegicus, UniProt P15127) for the following compound: N[C@H](CSC(=S)NCc1ccccc1)C(=O)O
Output: Not Active

Input: Give recorded IC50 with Insulin receptor (Rattus norvegicus, UniProt P15127) for the following compound: COc1ccc2cc([C@H](C)C(=O)O)ccc2c1
Output: Not Active

Input: Give recorded IC50 with Insulin receptor (Rattus norvegicus, UniProt P15127) for the following compound: CC(=O)Nc1cccc(O)c1
Output: Not Active

Input: Give recorded IC50 with Insulin receptor (Rattus norvegicus, UniProt P15127) for the following compound: Cc1cc(=O)n(-c2ccccc2)n1C [ANTIPYRINE]
Output: Not Active

Input: Give recorded IC50 with Insulin receptor (Rattus norvegicus, UniProt P15127) for the following compound: C[C@H]1O[C@@H](O[C@H]2[C@@H](O)C[C@H](O[C@H]3[C@@H](O)C[C@H](O[C@H]4CC[C@@]5(C)[C@H](CC[C@@H]6[C@@H]5CC[C@]5(C)[C@@H](C7=CC(=O)OC7)CC[C@]65O)C4)O[C@@H]3C)O[C@@H]2C)C[C@H](O)[C@@H]1O
Output: Not Active

Input: Give recorded IC50 with Insulin receptor (Rattus norvegicus, UniProt P15127) for the following compound: C[C@@]12C(=O)OC(=O)[C@]1(C)[C@H]1CC[C@@H]2O1
Output: Not Active

Input: Give recorded IC50 with Insulin receptor (Rattus norvegicus, UniProt P15127) for the following compound: CCN(CC)CCOC(=O)c1ccc(N)cc1
Output: Not Active

Input: Give recorded IC50 with Insulin receptor (Rattus norvegicus, UniProt P15127) for the following compound: COc1cccc2c1C(=O)c1c(O)c3c(c(O)c1C2=O)C[C@@](O)(C(=O)CO)C[C@@H]3O[C@H]1C[C@H](N)[C@H](O)[C@H](C)O1
Output: Not Active

Input: Give recorded IC50 with Insulin receptor (Rattus norvegicus, UniProt P15127) for the following compound: Cn1c(=O)c2c(ncn2CC2OCCO2)n(C)c1=O
Output: Not Active

Input: Give recorded IC50 with Insulin receptor (Rattus norvegicus, UniProt P15127) for the following compound: CN1C(C(=O)Nc2ccccn2)=C(O)c2sccc2S1(=O)=O
Output: Not Active
